# Target desc: T1, Human B7-H4 with HisFlag tag (huB7-H4-his) (human, UniProt Q7Z7D3 25-258)
# T1 construct: also called HuB7-H4 His protein; huB7-H4-HF
# T1 sequence: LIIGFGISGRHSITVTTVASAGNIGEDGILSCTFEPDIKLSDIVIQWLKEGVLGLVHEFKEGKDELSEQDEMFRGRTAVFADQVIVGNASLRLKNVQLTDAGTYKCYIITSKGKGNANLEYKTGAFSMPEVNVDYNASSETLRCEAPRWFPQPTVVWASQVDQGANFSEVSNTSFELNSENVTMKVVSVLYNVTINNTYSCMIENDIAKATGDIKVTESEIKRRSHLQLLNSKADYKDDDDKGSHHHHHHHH
# Method notes: SPR Biacore T200, antibody coupled to CM5 chip, hu-B7-H4-his in flow, 1:1 model
Below: a set of entries, each annotated with reported kon.
Return type: number; implicit unit M⁻¹ s⁻¹.

humanized anti-B7-H4 antibody hu2G6 (antibody, human IgG1, kappa, V domains shown, human IgG1 / kappa; also called humanized antibody 2G6) VH: EVQLLESGGGLVQPGGSLRLSCAASGFTFSRYGMSWVRQAPGKGLEWVSGINGGGSYTYYLDTVKGRFTISRDNARNTLYLQMSSLRAEDTAVYYCVSQGSNYYFDYWGQGTLVTVSS VL: DIRMTQSPSSLSASVGDRVTITCHASQGISSNIGWLQQKPGKAPKALIYHGTNLEDGVPSRFSGSGSGADYTLTISSLQPEDFATYYCVQYAQFPYTFGGGTKVEIKR	741000
humanized anti-B7-H4 antibody hu1C9 (antibody, human IgG1, kappa, V domains shown, human IgG1 / kappa; also called humanized antibody 1C9) VH: EVQLVQSGAEVKKPGASVKVSCKASGDTFTTYWMNWVRQAPGQRLEWMGGIYLNRGSSEYNEKFKGRVTLTVDTSASTAYMELSSLRSEDTAVYYCARDSRFSYWGQGTLVTVSS VL: DIQMTQSPSSLSASVGDRVTITCKASQDVSTAVAWYQQKPGKAPKLLISSASYRYTGVPSRFSGSGSGTDFTFTISSLQPEDIATYYCQQHYNTPLTFGGGTKVEIKR	335000
humanized anti-B7-H4 antibody hu2F7 (antibody, human IgG1, kappa, V domains shown, human IgG1 / kappa; also called humanized antibody 2F7) VH: EVQLVESGGGLVQPGGSLRLSCAASGFTFSNYYMSWVRQAPGKGLEWVAYVSSGGGSTYYSDSVKGRFTISRDNAKNTLYLQMSSLRAEDTAVYYCTRESYSQGNYFDYWGQGTTVTVSS VL: EIVMTQSPATLSLSPGERATLSCRASQSISDYLHWYQQKPGQSPRLLIKFASQSISGIPARFSGSGSGTDFTLTISSLEPEDFAVYYCQNGHSFSLTFGQGTKLEIKR	329000

# input for lookup
IN: Give its kon value. Item: humanized anti-B7-H4 antibody hu2F8 (antibody, human IgG1, kappa, V domains shown, human IgG1 / kappa; also called humanized antibody 2F8) VH: EVQLVQSGAEVKKPGASVKVSCKASGYTFTSSWMNWVRQAPGQRLEWMGGIYPNRGNIEYNEKFKGRVTLTVDTSASTAYMELSSLRSEDTAVYYCARDSRFSYWGQGTLVTVSS VL: DIQMTQSPSSLSASVGDRVTITCKASQDVRTAVAWYQQKPGKAPKLLISSTSYRYTGVPSRFSGSGSGTDFTFTISSLQPEDIATYYCQQHYSTPLTFGGGTKVEIKR
OUT: 447000

Cited source: patent US20210032347A1
